assay: Anticancer human tumor 997537-175-T-J1-PDC patient-derived colon adenocarcinoma cell line growth inhibition [POLQ]; details: 997537-175-T-J1-PDC complex spheroid viability, combination with POLQ inhibitors; second compound 0.316 µM; first compound 10 µM; hits give low values
Labelling: viability, T/C reported below 9% becomes condition met; at or above becomes condition not met.

# check: viability, T/C < 9% for COc1cccc2c1C(=O)c1c(O)c3c(c(O)c1C2=O)CC(O)(C(=O)CO)CC3OC1CC(N)C(O)C(C)O1 (stereo not given) + COC1C(OC(N)=O)C(O)C(Oc2ccc3c(O)c(NC(=O)c4ccc(O)c(CC=C(C)C)c4)c(=O)oc3c2C)OC1(C)C
condition met

Bench note: check whether C=CC(=O)N1CCN(c2nc(=O)n(-c3c(C)ccnc3C(C)C)c3nc(-c4c(O)cccc4F)c(F)cc23)C(C)C1 (stereo not given) + Cc1cccc(N(C)C(=O)C2C(O)CCN2c2nc(C)cc(C(F)(F)F)c2C#N)c1 shows viability, T/C below 9%
condition not met

Lab note: viability, T/C threshold 9%. Does this compound come in strictly under it? CNCc1ccc(-c2[nH]c3cc(F)cc4c3c2CCNC4=O)cc1 + Cc1cccc(N(C)C(=O)C2C(O)CCN2c2nc(C)cc(C(F)(F)F)c2C#N)c1
condition not met

Okay, next one:
Dear colleague, could you confirm whether viability, T/C of COc1ccc([C@@H](O)c2cc(-c3ncnc4cc(N5CCOCC5)ccc34)c(F)cc2Cl)nn1 + COC1C(OC(N)=O)C(O)C(Oc2ccc3c(O)c(NC(=O)c4ccc(O)c(CC=C(C)C)c4)c(=O)oc3c2C)OC1(C)C falls below 9%? Thanks.
condition not met

====

test: Anticancer human tumor 997537-175-T-J1-PDC cell line growth inhibition [POLQ]; settings: 997537-175-T-J1-PDC complex spheroid viability, combination with POLQ inhibitors; second compound 0.316 µM; first compound 10 µM; hits give low values;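 note: luminescence signal used as a surrogate for viable cells; spheroids exposed to drugs for seven days before readout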
Field 'label' (enum: satisfied / not satisfied). Set to satisfied when viability, T/C is strictly under 50%; else not satisfied.

Quick check: viability, T/C of CCCS(=O)(=O)Nc1ccc(F)c(C(=O)c2c[nH]c3ncc(-c4ccc(Cl)cc4)cc23)c1F + Nc1ccc(C#CCN(C(=O)Cc2ncc(C(F)(F)F)cc2C(F)(F)F)c2ccc(F)cc2)nn1 under 50%?
satisfied

Is viability, T/C of CCCS(=O)(=O)Nc1ccc(F)c(C(=O)c2c[nH]c3ncc(-c4ccc(Cl)cc4)cc23)c1F + COC1C(OC(N)=O)C(O)C(Oc2ccc3c(O)c(NC(=O)c4ccc(O)c(CC=C(C)C)c4)c(=O)oc3c2C)OC1(C)C strictly below 50%?
satisfied

State whether 50% exceeds viability, T/C recorded for COc1cc(C2c3cc4c(cc3C(OC3OC5COC(C)OC5C(O)C3O)C3COC(=O)C23)OCO4)cc(OC)c1O (stereo not given) + COC1C(OC(N)=O)C(O)C(Oc2ccc3c(O)c(NC(=O)c4ccc(O)c(CC=C(C)C)c4)c(=O)oc3c2C)OC1(C)C .
not satisfied

Answer whether the compound Nc1ccn(C2OC(CO)C(O)C2(F)F)c(=O)n1 (stereo not given) + Cc1cccc(N(C)C(=O)C2C(O)CCN2c2nc(C)cc(C(F)(F)F)c2C#N)c1 has viability, T/C strictly less than 50%
not satisfied

Quick check: does CC(C)n1c(=O)n(C)c2cnc3cc(F)c(-c4ccc(OCCCN5CCCCC5)nc4)cc3c21 + Nc1ccc(C#CCN(C(=O)Cc2ncc(C(F)(F)F)cc2C(F)(F)F)c2ccc(F)cc2)nn1 have viability, T/C under 50%?
not satisfied

Provenance of the data: PubChem BioAssay AID1963825
